Answer each item with its documented EC50.
# Test system: Igrove/Jurkat-DNR chemoreversal, trypan blue viability, 7 d
# Test Details: chemoreversal in ABCG2 cells, dose response, ABC transporter inhibitor project, paired ABCB1 counter-screen, SAR hit validation (AID 488974)
Active and inactive are the calls of the source.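 How the source made its calls: active means ratio of toxic midpoint dose to chemo-reversal midpoint dose above 10, among compounds with toxic midpoint under 15 µM; inactive means the rest.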

Example cases with answers are listed next.
COc1cccc(-c2cc(N3CCN(C(=O)c4ccoc4)CC3)n3nc(-c4cccc(OC)c4)cc3n2)c1 680 nM
COc1ccc(-c2cc3nc(C)c(C)c(N4CCN(C(=O)c5ccco5)CC4)n3n2)cc1 1440 nM (inactive)
Cc1nc2cc(-c3ccc(F)cc3)nn2c(N2CCN(C(=O)c3ccco3)CC2)c1C 120 nM (inactive)

For every listed record, write down its EC50.
1. COc1cccc(-c2cc3nc(C)c(C)c(N4CCN(C(=O)c5ccoc5)CC4)n3n2)c1
2. CC(=O)N1CCN(c2c(C)c(C)nc3cc(-c4cccc(F)c4)nn23)CC1
3. COc1cc(OC)cc(-c2cc3nc(C)c(C)c(N4CCN(C(=O)c5ccoc5)CC4)n3n2)c1
4. O=C(c1ccco1)N1CCN(c2cc(-c3ccccc3)nc3cc(-c4cccc(F)c4)nn23)CC1
5. Cc1cc(N2CCN(C(=O)c3ccco3)CC2)n2nc(-c3ccc(F)cc3)cc2n1
6. O=C(c1ccncc1)N1CCN(c2cc(-c3ccccc3)nc3cc(-c4cccc(Cl)c4)nn23)CC1
7. O=C(Cc1ccccc1)N1CCN(c2cc(-c3ccccc3)nc3cc(-c4cccc(Cl)c4)nn23)CC1

(A)
["760 nM", "730 nM", "950 nM", "760 nM (inactive)", "140 nM", "150 nM", "600 nM"]

For every listed record, write down its EC50.
1. Cc1cc(N2CCN(C(=O)c3ccco3)CC2)n2nc(-c3ccccc3)nc2n1
2. COc1ccc(-c2[nH]nc3nc(N4CCN(C(=O)c5ccoc5)CC4)cc(C(F)(F)F)c23)cc1

(A)
1. 2940 nM (inactive)
2. 460 nM (inactive)

These entries and their values trace back to PubChem BioAssay AID488974.
